# TGT: T1, human MSLN-FL-his protein (human, UniProt Q13421 296-580)
# T1 construct: Made in HEK293E cells, purified on nickel column; it is put last here; also called human MSLN full-length protein; hMSLN-FL-his; not shown: His tag
# TEST_NAME: ELISA on coated antigen, antibody 10 nM
Is OD450 at least 3 OD? Then 1 (yes). If not, 0 (no).

[[record]]
binder = "S009-F8-18.9 (antibody, human IgG1, kappa, V domains shown, Human-murine chimeric antibody, human IgG1 heavy and kappa light constant regions) VH: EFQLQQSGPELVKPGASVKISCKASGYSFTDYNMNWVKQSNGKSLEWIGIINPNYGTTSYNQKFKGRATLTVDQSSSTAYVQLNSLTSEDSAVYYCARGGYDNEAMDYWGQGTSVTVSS VL: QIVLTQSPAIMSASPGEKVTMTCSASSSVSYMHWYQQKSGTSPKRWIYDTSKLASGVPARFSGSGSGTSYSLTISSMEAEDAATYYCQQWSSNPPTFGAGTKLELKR"
label_value = "0 (no)"

[[record]]
binder = "S009-F8-22.23 (antibody, human IgG1, kappa, V domains shown, Human-murine chimeric antibody, human IgG1 heavy and kappa light constant regions) VH: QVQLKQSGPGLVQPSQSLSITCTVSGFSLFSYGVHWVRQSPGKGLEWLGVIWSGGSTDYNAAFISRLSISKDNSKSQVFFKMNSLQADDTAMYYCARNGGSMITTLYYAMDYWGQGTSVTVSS VL: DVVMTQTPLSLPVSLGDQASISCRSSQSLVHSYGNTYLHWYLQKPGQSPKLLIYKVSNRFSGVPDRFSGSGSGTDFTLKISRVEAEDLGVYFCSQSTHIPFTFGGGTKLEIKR"
label_value = "0 (no)"

[[record]]
binder = "S009-F8-19.21 (antibody, human IgG1, kappa, V domains shown, Human-murine chimeric antibody, human IgG1 heavy and kappa light constant regions) VH: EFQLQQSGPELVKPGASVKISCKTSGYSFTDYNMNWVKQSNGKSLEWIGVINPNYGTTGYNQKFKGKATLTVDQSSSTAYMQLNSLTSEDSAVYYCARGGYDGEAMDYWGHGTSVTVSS VL: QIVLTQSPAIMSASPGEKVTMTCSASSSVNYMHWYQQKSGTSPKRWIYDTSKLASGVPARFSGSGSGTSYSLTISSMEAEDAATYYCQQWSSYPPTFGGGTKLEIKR"
label_value = "0 (no)"

[[record]]
binder = "S009-F8-36.12 (antibody, human IgG1, kappa, V domains shown, Human-murine chimeric antibody, human IgG1 heavy and kappa light constant regions) VH: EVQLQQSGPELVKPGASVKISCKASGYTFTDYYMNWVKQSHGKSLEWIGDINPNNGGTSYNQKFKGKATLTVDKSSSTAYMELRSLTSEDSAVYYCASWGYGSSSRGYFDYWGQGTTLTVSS VL: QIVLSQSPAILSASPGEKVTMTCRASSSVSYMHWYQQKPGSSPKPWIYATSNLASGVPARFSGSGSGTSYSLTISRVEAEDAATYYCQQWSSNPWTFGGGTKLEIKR"
label_value = "0 (no)"

[[record]]
binder = "S009-F8-27.1 (antibody, human IgG1, kappa, V domains shown, Human-murine chimeric antibody, human IgG1 heavy and kappa light constant regions) VH: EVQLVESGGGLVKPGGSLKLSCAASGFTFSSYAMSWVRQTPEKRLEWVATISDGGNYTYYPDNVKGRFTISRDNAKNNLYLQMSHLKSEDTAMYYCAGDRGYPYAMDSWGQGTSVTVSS VL: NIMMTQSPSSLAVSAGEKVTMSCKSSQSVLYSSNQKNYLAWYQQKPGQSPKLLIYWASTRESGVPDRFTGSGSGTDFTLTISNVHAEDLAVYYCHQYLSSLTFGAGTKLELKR"
label_value = "0 (no)"

[[record]]
binder = "S009-F8-31.22 (antibody, human IgG1, kappa, V domains shown, Human-murine chimeric antibody, human IgG1 heavy and kappa light constant regions) VH: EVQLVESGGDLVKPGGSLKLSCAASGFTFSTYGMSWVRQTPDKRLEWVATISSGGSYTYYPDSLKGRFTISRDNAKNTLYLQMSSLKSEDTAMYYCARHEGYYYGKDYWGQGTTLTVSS VL: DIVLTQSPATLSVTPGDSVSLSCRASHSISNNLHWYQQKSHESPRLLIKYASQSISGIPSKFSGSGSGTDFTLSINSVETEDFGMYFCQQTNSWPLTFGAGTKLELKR"
label_value = "0 (no)"

[[record]]
binder = "S009-F8-28.23 (antibody, human IgG1, kappa, V domains shown, Human-murine chimeric antibody, human IgG1 heavy and kappa light constant regions) VH: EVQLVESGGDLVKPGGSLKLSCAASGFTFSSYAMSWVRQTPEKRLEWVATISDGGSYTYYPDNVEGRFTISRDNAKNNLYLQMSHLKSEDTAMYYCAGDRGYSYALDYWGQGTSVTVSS VL: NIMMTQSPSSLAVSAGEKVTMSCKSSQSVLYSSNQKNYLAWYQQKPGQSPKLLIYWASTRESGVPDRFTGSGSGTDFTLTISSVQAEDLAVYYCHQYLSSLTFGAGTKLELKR"
label_value = "1 (yes)"

[[record]]
binder = "S009-F8-8.22 (antibody, human IgG1, kappa, V domains shown, Human-murine chimeric antibody, human IgG1 heavy and kappa light constant regions) VH: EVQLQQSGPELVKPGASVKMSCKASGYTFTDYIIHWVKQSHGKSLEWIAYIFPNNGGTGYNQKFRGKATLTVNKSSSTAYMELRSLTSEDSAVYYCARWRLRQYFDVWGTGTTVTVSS VL: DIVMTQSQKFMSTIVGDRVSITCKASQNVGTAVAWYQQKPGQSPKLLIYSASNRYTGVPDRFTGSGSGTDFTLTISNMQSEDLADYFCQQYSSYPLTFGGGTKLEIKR"
label_value = "1 (yes)"

[[record]]
binder = "S009-F8-7.5 (antibody, human IgG1, kappa, V domains shown, Human-murine chimeric antibody, human IgG1 heavy and kappa light constant regions) VH: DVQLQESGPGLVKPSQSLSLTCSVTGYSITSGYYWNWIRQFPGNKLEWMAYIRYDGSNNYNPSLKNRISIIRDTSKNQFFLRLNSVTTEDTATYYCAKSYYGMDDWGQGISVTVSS VL: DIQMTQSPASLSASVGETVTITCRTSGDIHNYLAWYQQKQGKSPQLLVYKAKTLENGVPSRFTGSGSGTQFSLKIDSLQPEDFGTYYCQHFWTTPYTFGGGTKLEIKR"
label_value = "0 (no)"

[[record]]
binder = "S009-F8-4.5 (antibody, human IgG1, kappa, V domains shown, Human-murine chimeric antibody, human IgG1 heavy and kappa light constant regions) VH: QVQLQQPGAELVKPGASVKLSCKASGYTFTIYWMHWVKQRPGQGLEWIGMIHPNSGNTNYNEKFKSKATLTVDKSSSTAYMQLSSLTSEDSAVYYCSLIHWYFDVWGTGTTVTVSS VL: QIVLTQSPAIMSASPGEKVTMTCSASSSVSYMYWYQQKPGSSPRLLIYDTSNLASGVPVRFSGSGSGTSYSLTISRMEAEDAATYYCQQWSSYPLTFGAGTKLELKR"
label_value = "0 (no)"

[[record]]
binder = "S009-F8-29.1 (antibody, human IgG1, kappa, V domains shown, Human-murine chimeric antibody, human IgG1 heavy and kappa light constant regions) VH: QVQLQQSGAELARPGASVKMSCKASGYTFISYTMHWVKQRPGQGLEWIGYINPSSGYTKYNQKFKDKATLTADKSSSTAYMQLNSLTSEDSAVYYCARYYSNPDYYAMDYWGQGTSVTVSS VL: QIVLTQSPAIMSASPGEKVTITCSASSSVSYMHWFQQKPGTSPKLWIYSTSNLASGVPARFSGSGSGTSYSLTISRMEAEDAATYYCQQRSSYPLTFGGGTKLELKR"
label_value = "1 (yes)"

